Target: EGFR L858R/T790M/C797S (Homo sapiens, UniProt P00533, C797S/L858R/T790M)
Sequence (P00533 25-1210 T790M/C797S/L858R): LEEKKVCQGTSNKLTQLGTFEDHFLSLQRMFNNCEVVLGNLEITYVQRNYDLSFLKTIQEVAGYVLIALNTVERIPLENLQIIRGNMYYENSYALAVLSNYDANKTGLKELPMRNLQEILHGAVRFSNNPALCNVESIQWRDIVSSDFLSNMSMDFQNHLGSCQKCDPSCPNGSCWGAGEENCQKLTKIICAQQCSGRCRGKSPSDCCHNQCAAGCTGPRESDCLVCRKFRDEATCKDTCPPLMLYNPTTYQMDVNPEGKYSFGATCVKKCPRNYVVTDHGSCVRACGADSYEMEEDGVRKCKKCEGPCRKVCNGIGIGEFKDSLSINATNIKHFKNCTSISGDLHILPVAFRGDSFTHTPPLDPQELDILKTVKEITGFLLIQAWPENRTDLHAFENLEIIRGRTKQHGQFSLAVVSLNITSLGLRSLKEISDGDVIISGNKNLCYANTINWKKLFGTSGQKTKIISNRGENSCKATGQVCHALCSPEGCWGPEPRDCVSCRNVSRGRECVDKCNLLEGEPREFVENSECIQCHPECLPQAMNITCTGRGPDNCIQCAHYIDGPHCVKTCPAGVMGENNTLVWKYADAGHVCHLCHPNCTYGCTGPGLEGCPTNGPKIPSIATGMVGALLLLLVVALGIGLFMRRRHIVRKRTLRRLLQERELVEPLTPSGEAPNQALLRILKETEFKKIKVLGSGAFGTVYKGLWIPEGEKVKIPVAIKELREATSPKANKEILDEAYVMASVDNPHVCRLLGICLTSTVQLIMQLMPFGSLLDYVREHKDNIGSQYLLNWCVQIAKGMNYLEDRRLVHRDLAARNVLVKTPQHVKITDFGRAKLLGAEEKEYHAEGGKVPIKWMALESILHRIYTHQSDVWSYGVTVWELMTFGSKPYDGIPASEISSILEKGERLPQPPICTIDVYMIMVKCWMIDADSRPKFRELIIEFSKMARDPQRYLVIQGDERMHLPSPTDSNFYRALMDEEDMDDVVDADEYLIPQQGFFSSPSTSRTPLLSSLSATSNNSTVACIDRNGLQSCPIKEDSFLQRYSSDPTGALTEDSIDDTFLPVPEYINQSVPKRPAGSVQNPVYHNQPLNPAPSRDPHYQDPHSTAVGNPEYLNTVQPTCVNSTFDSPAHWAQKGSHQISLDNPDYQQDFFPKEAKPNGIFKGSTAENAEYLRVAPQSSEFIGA
Assay: Biochemical EGFR kinase inhibition assay (Lance Ultra TR-FRET), triple mutant L858R/T790M/C797S
Settings: IC50 L858R/T790M/C797S (nM), 100 μM ATP
Method: Biochemical EGFR kinase assays were conducted using Lance Ultra time-resolved fluorescence resonance energy transfer (TR-FRET) technology from Perkin-Elmer. […] Each kinase reactions were incubated at room temperature for 1 hour and then stopped by the addition of 4 μL of stop solution (10 mM EDTA). […] After 60 minutes incubation at room temperature the LANCE signal was measured on an EnVision Multilabel Reader (Perkin-Elmer). […]
We'd kindly ask you to apply these IC50 classes: lower segment: < 1 nM; middle segment: ≥ 1 nM and < 4 nM; upper segment: ≥ 4 nM

Worked examples follow.
1) CC1(CO)CCN(c2cc(Nc3ccnc(-c4cnn(S(=O)(=O)C5CC5)c4)n3)ncc2C#Cc2cnc(CN3CCOCC3)s2)CC1; middle segment
2) CC1(CO)CCN(c2cc(Nc3ccnc(-c4cnn(S(=O)(=O)C5CC5)c4)n3)ncc2C#Cc2cnn(C(F)F)c2)CC1; lower segment
3) Cn1cc(C#Cc2cnc(Nc3ccnc(-c4cnn(S(=O)(=O)C5CC5)c4)n3)cc2N2CCC(=O)CC2)cn1; upper segment
4) CC1(CO)CCN(c2cc(Nc3ccnc(-c4cnn(S(=O)(=O)C5CC5)c4)n3)ncc2C#Cc2cnn(C3CCOC3)c2)CC1 (stereo not shown); middle segment
5) O=S(=O)(C1CC1)N1CCC(C#Cc2cnc(Nc3ccnc(-c4cnn(S(=O)(=O)C5CC5)c4)n3)cc2NC[C@H]2CC[C@H](CO)CC2)CC1; upper segment
6) COC1(O)CCN(c2cc(Nc3ccnc(-c4cnn(S(=O)(=O)C5CC5)c4)n3)ncc2C#CC2CCN(C)C2)CC1 (stereo not shown); lower segment
7) CN(C)CCC1CCCN(c2cc(Nc3ccnc(-c4cnn(S(=O)(=O)C5CC5)c4)n3)ncc2C#Cc2cnn(CCF)c2)C1 (stereo not shown); lower segment
8) CC1(CO)CCN(c2cc(Nc3ccnc(-c4cnn(S(C)(=O)=O)c4)n3)ncc2C#Cc2cnn(C(F)(F)F)c2)CC1; middle segment
9) O=S(=O)(C1CC1)n1cc(-c2nccc(Nc3cc(N[C@H]4CC[C@@H](O)CC4)c(C#Cc4ccc(CN5CCOCC5)s4)cn3)n2)cn1; upper segment
10) CC1(CO)CCN(c2cc(Nc3ccnc(-c4ccc(F)nc4)n3)ncc2C#Cc2cnn(C(F)(F)F)c2)CC1; upper segment

Kindly state the category for this compound: "Cn1cc(C#Cc2cnc(Nc3ccnc(-c4cnn(S(=O)(=O)C5CC5)c4)n3)cc2N2CCC(NCC(F)F)CC2)cn1" lower segment

Kindly state the category for this compound: CS(=O)(=O)N1CCC(C#Cc2cnc(Nc3ccnc(-c4cnn(S(=O)(=O)C5CC5)c4)n3)cc2NC2CCC(O)CC2)C1 (stereo not shown) middle segment

====

Target: EGFR L858R/T790M/C797S (Homo sapiens, UniProt P00533, C797S/L858R/T790M)
Experiment: Biochemical EGFR kinase inhibition assay (Lance Ultra TR-FRET), triple mutant L858R/T790M/C797S
Settings: Km ATP; read-out: IC50 L858R/T790M/C797S (nM) Km ATP
result_type: log10 IC50 (log10 of the value in nM)
The base-10 logarithm of IC50, taken with IC50 in nM, is what appears here.

Some solved cases for reference:
1. CC(C)Oc1cc(Nc2ccnc(-c3cnn(S(=O)(=O)C4CC4)c3)n2)ncc1C#Cc1cnn(CCF)c1 [Example 55]; 1.28
2. CCC(C)Nc1cc(Nc2ccnc(-c3cnn(S(=O)(=O)C4CC4)c3)n2)ncc1C#Cc1cnn(CCF)c1 (stereo not shown) [Example 26]; 0.56
3. CCC(C)Oc1cc(Nc2ccnc(-c3cnn(S(=O)(=O)C4CC4)c3)n2)ncc1C#Cc1cnn(C)c1 (stereo not shown) [Example 56]; 1.38
4. COCCC#Cc1cnc(Nc2ccnc(-c3cnn(S(=O)(=O)C4CC4)c3)n2)cc1NC(C)C [Example 22]; 0.73
5. CC1(CO)CCN(c2cc(Nc3ccnc(-c4cnn(S(=O)(=O)C5CC5)c4)n3)ncc2C#Cc2cnn(CC(F)F)c2)CC1 [Example 49]; 0.04

Recall and state the measured log10 IC50 for O=S(=O)(C1CC1)n1cc(-c2nccc(Nc3cc(N4CCCC(CO)C4)c(C#Cc4cnn(C5CCOCC5)c4)cn3)n2)cn1 (stereo not shown) [Example 100] . 0.11

Recall and state the measured log10 IC50 for Cn1ccc(C#Cc2cnc(Nc3ccnc(-c4cnn(S(=O)(=O)C5CC5)c4)n3)cc2N[C@H]2CC[C@@H](O)CC2)n1 [Example 106] . -0.22

====

Here, each record is paired with measured IC50 data.
Target: EGFR L858R/C797S (Homo sapiens, UniProt P00533, C797S/L858R)
Sequence (P00533 25-1210 C797S/L858R): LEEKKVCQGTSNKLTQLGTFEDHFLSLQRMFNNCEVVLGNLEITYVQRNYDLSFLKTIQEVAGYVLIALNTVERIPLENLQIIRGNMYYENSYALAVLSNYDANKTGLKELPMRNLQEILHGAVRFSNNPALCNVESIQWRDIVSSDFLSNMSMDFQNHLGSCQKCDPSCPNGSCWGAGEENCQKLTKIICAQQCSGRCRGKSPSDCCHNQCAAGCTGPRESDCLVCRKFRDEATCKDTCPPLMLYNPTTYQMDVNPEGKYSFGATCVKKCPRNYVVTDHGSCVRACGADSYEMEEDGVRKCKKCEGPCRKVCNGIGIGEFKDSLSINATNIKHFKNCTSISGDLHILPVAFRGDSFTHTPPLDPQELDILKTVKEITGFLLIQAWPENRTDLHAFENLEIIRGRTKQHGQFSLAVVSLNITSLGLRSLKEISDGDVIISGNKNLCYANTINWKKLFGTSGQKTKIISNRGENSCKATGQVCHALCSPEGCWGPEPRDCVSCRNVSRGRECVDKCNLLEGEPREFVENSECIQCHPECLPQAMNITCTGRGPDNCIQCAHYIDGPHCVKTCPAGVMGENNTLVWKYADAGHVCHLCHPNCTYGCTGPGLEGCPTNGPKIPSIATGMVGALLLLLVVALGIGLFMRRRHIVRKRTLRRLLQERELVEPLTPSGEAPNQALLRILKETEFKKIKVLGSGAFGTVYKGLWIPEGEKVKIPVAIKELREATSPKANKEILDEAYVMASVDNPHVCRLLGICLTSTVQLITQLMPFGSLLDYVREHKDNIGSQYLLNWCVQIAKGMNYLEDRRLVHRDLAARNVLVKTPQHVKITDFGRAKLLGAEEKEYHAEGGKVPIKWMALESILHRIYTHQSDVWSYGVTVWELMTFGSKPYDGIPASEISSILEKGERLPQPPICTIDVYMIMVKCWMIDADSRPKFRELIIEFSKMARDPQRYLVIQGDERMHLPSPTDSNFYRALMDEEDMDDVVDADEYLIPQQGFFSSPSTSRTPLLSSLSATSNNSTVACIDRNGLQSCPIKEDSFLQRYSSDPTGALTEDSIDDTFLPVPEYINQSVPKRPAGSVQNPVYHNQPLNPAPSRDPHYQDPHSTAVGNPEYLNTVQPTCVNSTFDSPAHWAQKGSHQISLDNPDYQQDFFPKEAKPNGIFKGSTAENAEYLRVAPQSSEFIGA
Experiment: Biochemical EGFR kinase inhibition assay (Lance Ultra TR-FRET), double mutant L858R/C797S
Settings: IC50 L858R/C797S (nM), 100 μM ATP
Numeric only. Scale: nM

1) CN(C)CC1CCN(c2cc(Nc3ccnc(-c4cnn(S(=O)(=O)C5CC5)c4)n3)ncc2C#Cc2cnn(C3CC3)c2)CC1; 140
2) Cn1cc(C#Cc2cnc(Nc3ccnc(-c4cnn(S(=O)(=O)C5CC5)c4)n3)cc2N2CCC(CO)CC2)cn1; 28.1
3) O=S(=O)(C1CC1)n1cc(-c2nccc(Nc3cc(N4CCC5(CCCO5)CC4)c(C#Cc4ncc(CN5CCOCC5)cn4)cn3)n2)cn1; 16.7
4) CN(C)C[C@H]1CC[C@@H](Nc2cc(Nc3ccnc(-c4cnn(S(=O)(=O)C5CC5)c4)n3)ncc2C#Cc2cnn(CC3CC3)c2)CC1; 43.8
5) CNCC1(F)CCN(c2cc(Nc3ccnc(-c4cnn(S(=O)(=O)C5CC5)c4)n3)ncc2C#Cc2cnn(C)c2)CC1; 32.4

Here is another compound to look at.
Recall and state the measured IC50 for O=C(N1CCC(C#Cc2cnc(Nc3ccnc(-c4cnn(S(=O)(=O)C5CC5)c4)n3)cc2NC2CCC(O)CC2)C1)C(F)(F)F (stereo not drawn) . 24.1

====

Here, each record is paired with measured IC50 data.
Molecular target: EGFR Del19/C797S (Homo sapiens, UniProt P00533, C797S/DEL746-750)
Sequence (P00533 with tags, fused parts or gaps DEL746-750/C797S): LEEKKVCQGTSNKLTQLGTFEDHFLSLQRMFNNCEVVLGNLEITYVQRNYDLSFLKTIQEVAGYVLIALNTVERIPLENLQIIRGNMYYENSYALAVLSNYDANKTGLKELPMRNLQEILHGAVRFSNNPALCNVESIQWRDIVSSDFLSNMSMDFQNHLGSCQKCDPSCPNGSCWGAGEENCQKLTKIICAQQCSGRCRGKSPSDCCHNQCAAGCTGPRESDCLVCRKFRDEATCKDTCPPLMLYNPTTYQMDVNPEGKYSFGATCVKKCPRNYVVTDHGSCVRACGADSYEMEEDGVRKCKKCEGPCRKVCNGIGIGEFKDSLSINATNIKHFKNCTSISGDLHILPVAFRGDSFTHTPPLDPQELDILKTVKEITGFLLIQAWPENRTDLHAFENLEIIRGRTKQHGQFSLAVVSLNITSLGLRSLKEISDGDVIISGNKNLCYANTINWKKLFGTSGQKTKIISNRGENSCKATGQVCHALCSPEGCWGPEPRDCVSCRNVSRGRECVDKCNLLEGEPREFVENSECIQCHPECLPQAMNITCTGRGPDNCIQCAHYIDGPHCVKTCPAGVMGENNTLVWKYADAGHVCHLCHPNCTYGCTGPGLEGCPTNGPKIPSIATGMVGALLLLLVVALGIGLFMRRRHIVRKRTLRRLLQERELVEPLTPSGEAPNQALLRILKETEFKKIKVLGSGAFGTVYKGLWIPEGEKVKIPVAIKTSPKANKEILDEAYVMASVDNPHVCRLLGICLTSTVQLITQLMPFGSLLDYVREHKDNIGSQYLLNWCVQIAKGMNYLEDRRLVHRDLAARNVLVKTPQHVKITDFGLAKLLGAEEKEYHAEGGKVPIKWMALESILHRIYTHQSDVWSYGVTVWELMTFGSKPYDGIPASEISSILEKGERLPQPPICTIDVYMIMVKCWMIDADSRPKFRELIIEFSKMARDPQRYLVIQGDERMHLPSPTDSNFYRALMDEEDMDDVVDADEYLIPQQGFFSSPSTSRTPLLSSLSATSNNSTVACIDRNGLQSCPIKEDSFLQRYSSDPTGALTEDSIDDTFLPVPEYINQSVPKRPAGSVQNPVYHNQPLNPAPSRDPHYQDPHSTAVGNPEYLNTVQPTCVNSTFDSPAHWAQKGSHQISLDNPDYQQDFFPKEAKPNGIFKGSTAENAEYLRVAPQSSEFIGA
Assay: Biochemical EGFR kinase inhibition assay (Lance Ultra TR-FRET), double mutant del19/C797S
Settings: IC50 Del19/C797S (nM), 100 μM ATP
Numeric only. Scale: nM

1. CC1(CO)CCN(c2cc(Nc3ccnc(-c4cnn(S(=O)(=O)C5CC5)c4)n3)ncc2C#Cc2cnn3c2CNCC3)CC1 [Example 149]; 0.4

Recall and state the measured IC50 for Cn1cc(C#Cc2cnc(Nc3ccnc(-c4cnn(S(=O)(=O)C5CC5)c4)n3)cc2N2CCCC(CO)CC2)cn1 (stereo not shown) [Example 78] . 12.4

Recall and state the measured IC50 for CC1(CO)CCN(c2cc(Nc3ccnc(-c4cnn(S(=O)(=O)C5CC5)c4)n3)ncc2C#CC2(O)CCOC2)CC1 (stereo not shown) [Example 355] . 0.4

Recall and state the measured IC50 for CC1(CO)CCN(c2cc(Nc3ccnc(-c4cnn(S(=O)(=O)C5CC5)c4)n3)ncc2C#Cc2cnn(CC(F)F)c2)CC1 [Example 49] . 0.9

====

Here, each record is paired with measured IC50 data.
Molecular target: EGFR Del19/T790M/C797S (Homo sapiens, UniProt P00533, C797S/DEL746-750/T790M)
Sequence (P00533 with tags, fused parts or gaps DEL746-750/T790M/C797S): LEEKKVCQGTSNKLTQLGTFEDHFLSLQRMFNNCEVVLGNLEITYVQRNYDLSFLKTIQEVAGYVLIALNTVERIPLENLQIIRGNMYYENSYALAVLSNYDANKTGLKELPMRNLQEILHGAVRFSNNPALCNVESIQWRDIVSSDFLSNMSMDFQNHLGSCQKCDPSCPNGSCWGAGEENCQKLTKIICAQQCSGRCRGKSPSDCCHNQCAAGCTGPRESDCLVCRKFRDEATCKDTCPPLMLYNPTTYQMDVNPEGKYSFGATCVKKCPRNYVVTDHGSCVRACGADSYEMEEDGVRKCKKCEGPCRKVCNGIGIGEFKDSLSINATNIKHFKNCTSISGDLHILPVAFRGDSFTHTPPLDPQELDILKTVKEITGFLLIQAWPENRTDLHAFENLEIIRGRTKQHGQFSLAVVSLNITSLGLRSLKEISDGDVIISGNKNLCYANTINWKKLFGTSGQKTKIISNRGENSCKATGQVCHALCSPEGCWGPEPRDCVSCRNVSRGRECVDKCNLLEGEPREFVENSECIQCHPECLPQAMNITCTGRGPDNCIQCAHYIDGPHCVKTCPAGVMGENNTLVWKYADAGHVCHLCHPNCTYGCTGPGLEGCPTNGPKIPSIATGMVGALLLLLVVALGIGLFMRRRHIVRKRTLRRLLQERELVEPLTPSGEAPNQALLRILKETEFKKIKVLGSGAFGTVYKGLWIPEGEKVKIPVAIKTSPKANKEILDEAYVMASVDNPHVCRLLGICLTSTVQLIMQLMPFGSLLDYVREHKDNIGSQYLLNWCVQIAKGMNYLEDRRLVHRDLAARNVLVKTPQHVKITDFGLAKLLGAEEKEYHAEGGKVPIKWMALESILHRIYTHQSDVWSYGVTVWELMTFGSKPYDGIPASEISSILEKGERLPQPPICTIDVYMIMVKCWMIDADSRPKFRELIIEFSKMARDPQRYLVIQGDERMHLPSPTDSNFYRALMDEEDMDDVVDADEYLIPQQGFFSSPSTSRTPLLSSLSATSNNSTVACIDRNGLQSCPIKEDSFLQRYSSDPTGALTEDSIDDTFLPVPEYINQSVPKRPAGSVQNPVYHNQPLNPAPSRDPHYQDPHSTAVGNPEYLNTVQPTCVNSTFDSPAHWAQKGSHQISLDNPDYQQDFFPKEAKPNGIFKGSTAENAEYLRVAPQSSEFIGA
Experiment: Biochemical EGFR kinase inhibition assay (Lance Ultra TR-FRET), triple mutant del19/T790M/C797S
Settings: IC50 Del19/T790M/C797S (nM), 100 μM ATP
Numeric only. Scale: nM

Some solved cases for reference:
1) CC1(CO)CCN(c2cc(Nc3ccnc(-c4cnn(S(=O)(=O)C5CC5)c4)n3)ncc2C#CCNC(=O)C(F)(F)F)CC1; 0.2
2) O=S(=O)(C1CC1)n1cc(-c2nccc(Nc3cc(N[C@H]4CC[C@@H](O)CC4)c(C#Cc4cnn(CCF)c4)cn3)n2)cn1; 1.1
3) O=S(=O)(C1CC1)n1cc(-c2nccc(Nc3cc(N4CCCC(CO)C4)c(C#Cc4cnn(C5CCOCC5)c4)cn3)n2)cn1 (centres unmarked); 1.6
4) CC1(CO)CCN(c2cc(Nc3ccnc(-c4cnn(S(=O)(=O)C5CC5)c4)n3)ncc2C#CC2CCCC2)CC1; 3.3

Check EGFR Del19/T790M/C797S (Homo sapiens, UniProt P00533, C797S/DEL746-750/T790M) data and give IC50 for "O=S(=O)(C1CC1)n1cc(-c2nccc(Nc3cc(N[C@H]4CC[C@@H](CO)CC4)c(C#Cc4cnn(C(F)(F)F)c4)cn3)n2)cn1" . 3.9

Check EGFR Del19/T790M/C797S (Homo sapiens, UniProt P00533, C797S/DEL746-750/T790M) data and give IC50 for "Cn1cc(C#Cc2cnc(Nc3ccnc(Nc4ccccc4S(C)(=O)=O)n3)cc2N2CCC(C)(CO)CC2)cn1" . 1.2
